Assay: soluble on expression in E. coli; label from the status in PepcDB or PDB records
Recorded endpoint: soluble on expression in E. coli

Worked cases, soluble on expression in E. coli given:
Chain sequence	Recorded endpoint	Value
MKSGERSAVADRAQQIMSAARELLDAEGPDALSMRRIAERVGIRAPSLYKHFADKAALVAGLQAQGLTLLAEVQEAAEAEIGADPPLLVLGYAYRRHALASPHLYRITHGWPLARTALPEGLEDRAALPLARAVHGDINIARSFWAFAHGMVVLELDGRFPPGADLDVAWRTGCEAFTQAIRNRPHGSTA	soluble on expression in E. coli	not soluble
MELVIISGRSGSGKSVALRALEDVGYYCVDNLPFPLIAELASFLLASDCSAVVSLDIRNFPENLTRIDELLHQLSQLTINTKMIFLDCESATLIRRYSDSRRLHPLSNQDLSLASAIELENTLLDPLRQQADYLIDTTHSSPHELAANLRHILRGSTEKELNIVFESFGFKYGLSADADYVFDVRFLPNPHWHAELRAMTGLEQPVIDFLERQTEVHNFIYQTRNYLETWLPMLEKNNRSYLTIAFGCTGGKHRSVFITEQLAKYFQSRGKNVKIRHRSLEKY	soluble on expression in E. coli	not soluble
MIENAKENSQRVELKDRIIETASEAFTTHGIKSITMDDIAASLGISKRTLYEVFQDKESLLTQCILKRQEEMNAFLAETLANSKNVLEVILVCYQRSIETFHRTNKRFFEDIKKYPKVHSLLKNYRERDSDSTIEFFKMGIKQGIFRDDVNFAIVNLLVHEQLDLLMNTDICNKYSFLEVYEAIMFTYIRGISTEKGAKVLEDFITEYRKQRIH	soluble on expression in E. coli	not soluble
MAKNPKDGESRTFLISVAAELAGMHAQTLRTYDRLGLVSPRRTSGGGRRYSLHDVELLRQVQHLSQDEGVNLAGIKRIIELTSQVEALQSRLQEMAEELAVLRANQRREVAVVPKSTALVVWKPRR	soluble on expression in E. coli	soluble

Problem: Requested read-out: soluble on expression in E. coli. Entry: MGSDKIHHHHHHMIIDAHIHCSGDEKVDDVLQALDQAQVDKAVVLAPFLSGPYSMHDSASLRSANQYLSRLIGHHTDRLIGFAVINPSLEGACQDLVSAHELGLHGLKMVPAGWYPYDDCARDVYETAARLKIPILFHSGIFIDGKSGRFCRPSFYEAIRDYPDLRVTLAHLGWPWSDEANAVGLIDLINGVPPDNSQFRFDISFGAPPVYRLEVLRKAIDVLTPDLLQFGSDVFLPCSADLIKSRIDEVLMLLERLEVDKSSRDRIMGGTAAAWLGIN
Result: not soluble

Problem: Reported soluble on expression in E. coli for MGSDKIHHHHHHMVTYVIQGILKEEEDRMVRRSFLIKGNEIAYVNGRLDKLTFIRMNGDQFCMAPGRVMNNDELETNLSISSFKKTLTSMIEKGCTSVVYFASANYERQLPFVIKQAYHRMNNSFIDYVIGLSLPAHLLRPSVLRFCKKEKIPVLRFSLQSIDDLYDVPWSRLQDVLYSYPIVLLPNMNELLEGERKLAEDLWVSLCEAHRIYGTTHPPNSLEAWPKTLLKLVGLYPKKGELRVGGDADYLLYYVARTNATLAETCDLDYDRDKPNVVVLRGSVLKANEVTSIRPGGGRRIRITRPGQFIPVSEASHWGM : what is it?
Result: not soluble

Problem: Requested read-out: soluble on expression in E. coli. Entry: MVSSLIRLRGGGLAEWNPEERPSIPAEIKRRVLVEAGHRCAIPTCRHIEVDIHHIVPWRTCQAHEYENLIALCPNCHRRADREEIDRKSLKLYKLNLRFVHEKYSQIEMDMLFDLARAPDGVGAPWTPFMLIFFKRVIDSGFVNVYELPGGIFVNGIKSSPSYLTITELGRNFISELGDRDLLALEHHHHHH
Result: not soluble

Problem: For the sequence shown here, MFFIMNYHIDWLTIEQDFGFEIPESILAAIFDFGMVGIHLDTGEMQEGIKTGKYRHKGSFCDEVSIKVSGSVIKMEGNPSRWGKVENVLGFTDVDSCVACFNNILFSLNLPLFTRCTEVFYLQGKEGEKVKKFSNGAIIKRLDITTNKSVGKGNERTFLKALSQMRYRNSVGRLHTNHCTVDWLSEKGNANLIYPSCYIKHEEMKLHSYDKIKNKFGQQAKEFQYYQKVFDYCLENGVVRFEQKLKSRYLQRENLCYWGLSDFSKLNEIQDGFINMYKKLSVSEVKLETIAQQLVSQGVVDTLRKANTTAYYAMRWSSGEDLSLLPIATFKRHRAILRKIGIDIANPCDIEKFQAVRVISCEQIFVKPFKAPDFYQYPSNMPQLRLVALEHHHHHH , give the reported soluble on expression in E. coli.
Result: not soluble

Problem: What soluble on expression in E. coli value was documented for this sequence, MERSWGMGHFPHMQKKTLDAFVRGLQIVMEAEGIKMKPLSVAAGMGESGVRDLIRNESSPKVANAYALARELGRTVDEIIQIGMTGDLNARPAHAPIAVAGCVGAGARVDLLDAYEKGDGMYHVARPPQLKPHGIVAVEVKGESMMPLYRPGSVLFYTRAAAEGVPVEALNTPCVCEDADGRAWLKVVKVGSQEGTFSLLSLNPDADNMHGVRLKWAAPVLLTLSPDYVERVYV ?
Result: not soluble

Problem: What measured soluble on expression in E. coli goes with MGSDKIHHHHHHMYKNSMVIGKFYPPHAGHAHLINTAAAQSENVSVLVLGNRFESITVADRTTWLAAEFEDIAGVHVIGMPNDCPEDYDSEEIWKAQSELMRLALKTHGVTEVEAVFSSEEYGAQLAQAFGAEHVLVDQSRTTFPISGTLCRDDLGSAWPFIIGPARQGLATRIILVGAESSGTSTLAKALTEHYRPRFPGITDVPEYGRDYTYEKFDALRAKMPEAVLEDMVWNEQDFGRIATRQNEMENAAADACPLVIADTDSLATTLWERFYIGERSYGSYLAASNLPPRDLYLITDHEGVEFEDDGWREGEHRRAEMTEWFKEALTAEGHSWILVSGDHERRKQTAVEIIELILMQRSKFTSPPWATRTVLEGAAV ?
Result: not soluble

Problem: Given the sequence SFHGIPASGVMGGAPANKPELYEEVKLYKNAREREKYDNMAELFAVVKTLQALEKAYIKDCVTPNEYTGACSRLLVQYKAAFKQVQGSDVGSIDDFCRKYRLDCPLAMERIKEDRPITIKDDKGNLNRCIADIVSLFITVMDKLRLEIRAMDEIQPDLRELMETMNRMSNMPPDSEAKDKVSLWLTTLSSMSASDELDDSQVRQMLFDLESAYNAFNRFLHSS , what is its reported soluble on expression in E. coli?
Result: soluble
